The reader will find reported solubility values listed item by item below.
test-details: Solubility in water and olive oil (Method III)
assay-conditions: olive oil, organic solvent or mixture

Some entries whose results are on file:
molecule="CCCCCCCCCCCCCCCCCCCC(=O)C(Cc1cc(C(C)(C)C)c(O)c(C(C)(C)C)c1)C(=O)OCC (centres unmarked)" assay_value="> 50 mg/mL"
molecule=CC(C)CCC[C@@H](C)[C@H]1CC[C@H]2[C@@H]3CC=C4C[C@@H](OCCOCc5cc(C(C)(C)C)c(O)c(C(C)(C)C)c5)CC[C@]4(C)[C@H]3CC[C@]12C assay_value="> 50 mg/mL"
molecule="CCCCCCCCCCCCCCCCCCCC(O)C(Cc1cc(C(C)(C)C)c(O)c(C(C)(C)C)c1)C(=O)O (centres unmarked)" assay_value="> 1 mg/mL"
molecule="O=C(O)c1cc(O)c(O)c(O)c1 [Gallic acid, reference compound]" assay_value="< 0.1 mg/mL"
molecule="CCCCCCCCCCCCCCCCCCOC(=O)CCCCC1CCSS1 (centres unmarked)" assay_value="> 50 mg/mL"

solubility for CCCCCCNC(=O)C1(C)CCc2c(C)c(O)c(C)c(C)c2O1 (centres unmarked) is > 10 mg/mL

Input O=C(O)C(S)C(S)C(=O)O (centres unmarked) [2,3-Mercaptosuccinic acid, reference compound] . Output solubility: < 0.1 mg/mL

Recorded result, CC(CCC(=O)NCCCNC(=O)CCCCC(S)CCS)C1CC[C@H]2C3CC[C@@H]4C[C@H](O)CC[C@]4(C)[C@H]3C[C@H](O)[C@]12C (some centres unmarked) , solubility: > 50 mg/mL

Cited source for all entries: patent US5508275A
